Overview of reported GI50 across a group of compounds:
# Test system: HOP-62
# Test description: NCI tumour cell line growth inhibition, 48 h
Calls of active or inactive are those of the source. Cut-off read from the data, not from the text of the source: active = GI50 up to about 1.1 µM and inactive = higher.

O=C(NO)C12C3C4C1C1C2C3C41C(=O)NO (centres undefined) | > 100 µM (inactive)
CC(C)N(C(=O)C12C3C4C5C3C1(C(=O)O)C5C42)C(C)C (centres undefined) | > 100 µM (inactive)
CC(C)c1cc(C(C)C)c(B(c2ccccc2)c2ccccc2)c(C(C)C)c1B(c1ccccc1)c1ccccc1 | > 100 µM (inactive)
COc1ccc(C(C2=C(O)COC2=O)c2cc3c(cc2O)OCO3)cc1OC (centres undefined) | > 100 µM (inactive)
CC12NC(=C(C#N)C#N)C(C#N)=C3NC(N)=C(C#N)C(=C31)Oc1ccccc12 (centres undefined) | 5.04 µM (inactive)

Which GI50 is reported for this compound? Cc1cc(C)nc(NS(=O)(=O)c2ccc(Nc3c4ccccc4nc4c(C(=O)NCCN(C)C)ccc(Cl)c34)cc2)n1 2.85 µM (inactive)

Which GI50 is reported for this compound? CC(=O)OCC1OC(n2c(-c3ccccc3)c(/N=N/c3ccc(C)cc3)c(C)c(C#N)c2=S)C(OC(C)=O)C(OC(C)=O)C1OC(C)=O (centres undefined) 18.7 µM (inactive)

Which GI50 is reported for this compound? COc1ccc2c(c1)CCCN1Cc3cc(OC)c(OC)cc3CC21 (centres undefined) 60.4 µM (inactive)

Which GI50 is reported for this compound? Cc1nc(Nc2ccc(Cl)cc2Cl)sc1C(=O)Nc1ccccc1 81.1 µM (inactive)

====

# Test system: NCI-H23
# Test description: NCI tumour cell line growth inhibition, 48 h
Activity calls are given as the source filed them. Cut-off read from the data, not from the text of the source: active = GI50 up to about 1.1 µM and inactive = higher.
Overview of reported GI50 across a group of molecules:

CC1CC(C(=O)OC2OC(COC3OC(CO)C(OC4OC(C)C(O)C(O)C4O)C(O)C3O)C(O)C(O)C2O)C2CCC3(C)C(=CCC4(C)C3CCC3C(C)(CO)C(O)C(O)CC34C)C2C1C (stereo not given) | 16.3 µM (inactive)
CCN1CCC(O)(/C=C/c2ccc(C(C)C)cc2)C(C(=O)/C=C/c2ccc(C(C)C)cc2)C1 (stereo not given) | 2.38 µM (inactive)
COC1=C(OC)C(=O)C(Cc2c(-c3ccccc3)nc3sc(Cl)cn23)=C(C)C1=O | 17.8 µM (inactive)
O=C1CC(c2c[nH]c3ccccc23)C(=O)N1 (stereo not given) | > 100 µM (inactive)
Cc1nc2ccccc2c(=O)n1/N=C(\N=N\c1cc(Cl)ccc1Cl)c1cccc(-c2ccco2)c1 | > 100 µM (inactive)
Cc1cc(S(=O)(=O)Nc2nc3cccnc3[nH]2)c(S)cc1Cl | 97.5 µM (inactive)
S=C1NCCN1C(=S)Nc1ccccc1 | 60.4 µM (inactive)
N#CC1CCCCOCCOCCOCCOCCOCCCCCC1=O (stereo not given) | > 100 µM (inactive)

Which GI50 is reported for this molecule? O=c1cnn(C2OC(CO)C(O)C(F)C2O)c(=O)[nH]1 (stereo not given) > 100 µM (inactive)

Which GI50 is reported for this molecule? O=C(/C(=C\c1ccc(Cl)cc1)c1ccccc1)c1ccccc1 72.6 µM (inactive)

====

# System: SF-539
# Test description: NCI tumour cell line growth inhibition, 48 h
Active and inactive are the calls of the source. No stated cut-off is given here; in the data, active = GI50 up to about 1.1 µM and inactive = higher.
Assay endpoint: GI50

CN1CCC2(CC1)/C(=N/C1CCCCC1)NC(=S)N2c1ccccc1 | > 100 µM (inactive)
O=C1c2cc(O)c(O)cc2O[C@H](c2ccc(O)c(O)c2)[C@H]1O | > 100 µM (inactive)
O=C1/C(=C\c2ccc(Br)cc2)CCCc2ccccc21 | 15.5 µM (inactive)
CC(C)(CO[C@H]1C[C@H]2CC[C@@]1(C)C2(C)C)[N+](=O)[O-] | 16.4 µM (inactive)
O=C(O)CSC(CC1(c2ccc(Cl)cc2)NC(=O)CS1)c1ccc(Cl)cc1 (stereo unspecified) | > 100 µM (inactive)

Which GI50 is reported for this molecule? O=C(Nc1ccc(/N=N/c2ccccc2)cc1)Sc1ccccc1C(=O)O > 100 µM (inactive)

Which GI50 is reported for this molecule? CC(=O)NC1CC2Oc3ccc(C)cc3C(C)(O2)C1O (stereo unspecified) > 100 µM (inactive)

Which GI50 is reported for this molecule? C=CCOc1ccc(N)c([N+](=O)[O-])c1 > 100 µM (inactive)

Which GI50 is reported for this molecule? O=C(/C(=C\c1ccc(Cl)cc1)c1ccccc1)c1ccccc1 > 100 µM (inactive)

Which GI50 is reported for this molecule? Cc1cc(O)c2c(c1)C(=O)c1c(c(O)cc(O)c1-c1c(O)cc(O)c3c1C(=O)c1cc(C)cc(O)c1C3=O)C2=O 10.6 µM (inactive)

Which GI50 is reported for this molecule? FC(F)(F)c1ccc2c(c1)N(CCCNCCN1CCOCC1)c1ccccc1S2 4.7 µM (inactive)

Which GI50 is reported for this molecule? FC(F)(F)c1nc2ccc3[nH]c4c(-c5ccccc5)nccc4c3c2[nH]1 > 100 µM (inactive)

Which GI50 is reported for this molecule? COc1ccc(O)c(/C=N/NC(=S)N2CCCCC2)c1 3.77 µM (inactive)

Which GI50 is reported for this molecule? Clc1ccccc1C(Nc1ncccn1)Nc1ncccn1 > 100 µM (inactive)

Which GI50 is reported for this molecule? CC(C)NC(=O)N(Nc1ccccc1)C(C)(C)C > 100 µM (inactive)

====

# Test system: CCRF-CEM
# Test description: NCI tumour cell line growth inhibition, 48 h
Calls of active or inactive are those of the source. No stated cut-off is given here; in the data, active = GI50 up to about 1.1 µM and inactive = higher. *1 amine or outer side, *2 acyl side, *3 side chain or, on linkers, in order; H or OH if unused. Where a SMILES comes first, the peptide text is derived from it. Non-standard residues stand in square brackets, D forms with d. Residues, ends and D or L forms follow the SMILES beside them. [ ]: non-standard residue; d: D form. The star is where a group is joined. ξ: configuration not given here. *: point of attachment. X30 = COC1=CC(=O)N(C(=O)[C@@H](O*)C(C)C)[C@H]1Cc1ccccc1; X43 = CCC(=O)CC(O)CC(C)CC(N[*:1])C(=O)[*:2]; ξLeu(3ξ-OH) = CC(C)C(O)C(N)C(=O)O; ξPro(4ξ-Me) = CC1CNC(C(=O)O)C1; NMeL = CN[C@@H](CC(C)C)C(=O)O; X42 = CCC(C)/C=C/C(=O)*; Cbz = O=C(OCc1ccccc1)*; Aib = CC(C)(N)C(=O)O; X44 = CC(CN(C)C)N*; βAla = NCCC(=O)O
Select the correct class. Options are active, inactive and nothing else.

These recorded examples may help you get a feel for the data.
Cc1ccc(P(c2ccc(C)cc2)c2ccc(C)cc2)cc1 | inactive
COC(=O)c1cc(=O)nc2cc3cccccc3n12 | inactive
COC1=CC(=O)N(C(=O)[C@@H](OC(=O)[C@@H]2CCCN2C(=O)[C@@H]2CCCN2C(=O)[C@H](CC(C)C)N(C)C(=O)[C@@H](NC(=O)[C@@H](NC(=O)OCc2ccccc2)C(C)C)C(C)C)C(C)C)[C@H]1Cc1ccccc1 (Cbz-VV[NMeL]PP-X30) | inactive
CC(NNC(=O)c1ccncc1)c1ccccc1 (stereo not drawn) | inactive
CCN(CC)CCC(=O)Nc1ccc2c(c1)C(=O)c1ccc(NC(=O)CCN(CC)CC)cc1C2=O | inactive
COc1cc2c(cc1OC)C(=O)/C(=C/c1ccc(N(C)C)cc1)CC2 | inactive
COc1ccc(CCN2C(=O)C=CC2=O)cc1OC | inactive

Lab note: next molecule to report on.
Record request — test call for CCC(=O)CC(O)CC(C)CC(NC(=O)C1CC(C)CN1C(=O)/C=C/C(C)CC)C(=O)NC(C(=O)NC(C)(C)C(=O)NC(CC(C)C)C(=O)NC(CC(C)C)C(=O)NC(C)(C)C(=O)NC(C)(C)C(=O)NCCC(=O)NC(C)CN(C)C)C(O)C(C)C (stereo not drawn) (X42-[ξPro(4ξ-Me)][X43][ξLeu(3ξ-OH)][Aib]LL[Aib][Aib][βAla]-X44; configuration not given here) active

====

# Test system: T47D
# Test description: NCI tumour cell line growth inhibition, 48 h
Active and inactive are the calls of the source. Cut-off read from the data, not from the text of the source: active = GI50 up to about 1.1 µM and inactive = higher.
Select the correct class. Options are true (1) = active, false (0) = inactive and nothing else.

These recorded examples may help you get a feel for the data.
Cc1nc2ccc(S(=O)(=O)NS(=O)(=O)c3ccc(-c4ccccc4)cc3)cc2c(=O)n1NS(=O)(=O)c1ccc(-c2ccccc2)cc1 | false (0)
O=C(CCN1CCN2c3ccccc3CCC2C1)c1ccc(F)cc1 (stereo unspecified) | false (0)

Record request — test call for Cc1nc(Nc2ccc(Cl)cc2Cl)sc1C(=O)Nc1ccccc1 false (0)

Record request — test call for S=C(Nc1ccc2cn[nH]c2c1)Nc1ccc2cn[nH]c2c1 false (0)

Record request — test call for O=C1N(C2CCCCC2)C(=O)N1C1CCCCC1 true (1)

Record request — test call for N#Cc1ccsc1Nc1ccccc1[N+](=O)[O-] false (0)

Record request — test call for CC(=O)NNc1nc(C)c(C(/C=C/c2ccc3c(c2)OCO3)=N/Nc2ccccc2)s1 false (0)
